These measurements were taken from ChEMBL document CHEMBL1201862.

- System: XF498
- Protocol Description: NCI tumour cell line growth inhibition, 48 h
Active and inactive are the calls of the source. No stated cut-off is given here; in the data, active = GI50 up to about 1.1 µM and inactive = higher.
Hello, when you answer, please use one of the following outcomes: y (active), n (inactive)

Answered cases to consult:
molecule="Cc1c(-c2cc3n(n2)C(c2cccs2)C(C#N)=C(c2ccccc2)N3)c(=O)n(-c2ccccc2)n1C (stereo not given)" study_system=XF498 qualitative_label=n
molecule="CC(C)(C)C(=C[S+]([O-])/N=C/c1ccccc1)C(C)(C)C (stereo not given)" study_system=XF498 qualitative_label=n
molecule="CC(C)N1CN(C(C(=O)N[C@@H]2C(=O)N3C2SC(C)(C)C3C(=O)O)c2ccc(O)cc2)CSC1=S (stereo not given in full)" study_system=XF498 qualitative_label=n

Would you mind telling me which call this test gave CCC12CCCC(=O)N1C(CO)C(c1ccccc1)O2 (stereo not given) ?
n

Would you mind telling me which call this test gave CC1=C(C(=O)Nc2cccc(C(F)(F)F)c2)C(c2ccccc2F)C(C(=O)Nc2cccc(C(F)(F)F)c2)=C(C)N1 ?
n
